# System name: P99 (Enterobacter cloacae, UniProt P05364)
# Sequence (P05364 21-381): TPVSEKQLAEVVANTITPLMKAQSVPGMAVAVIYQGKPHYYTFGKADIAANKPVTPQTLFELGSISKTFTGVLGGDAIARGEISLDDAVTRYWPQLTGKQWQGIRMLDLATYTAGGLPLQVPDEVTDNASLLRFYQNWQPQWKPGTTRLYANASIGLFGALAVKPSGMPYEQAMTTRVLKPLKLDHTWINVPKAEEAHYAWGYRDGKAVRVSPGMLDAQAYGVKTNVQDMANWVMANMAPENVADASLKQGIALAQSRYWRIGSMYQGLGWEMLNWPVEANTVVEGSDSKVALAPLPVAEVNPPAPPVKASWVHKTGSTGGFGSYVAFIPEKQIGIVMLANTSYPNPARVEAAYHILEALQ
# Measurement description: Ki app of β-lactamase inhibition, purified enzyme
# Format: biochemical
# Experimental context: Ki app
pKi: −log10 of the molar value.
Readout kind: pKi

1. NC(=O)[C@@H]1CC[C@@H]2CN1C(=O)N2OS(=O)(=O)O [Avibactam, avibactam]	8.00

----------
# Test system: K. pneumoniae ATCC BAA-1705 (KPM1123), KPC-2
# Measurement description: MIC, reference strain
# Assay type: cell-based
# Experimental context: Klebsiella pneumoniae, ATCCBAA1705; KPC-2; BLI at the fixed concentration in brackets; read-out: MIC
# MIC per record follows
Readout kind: MIC (µg/mL)

1) CO/N=C(\C(=O)N[C@@H]1C(=O)N2C(C(=O)[O-])=C(C[N+]3(C)CCCC3)CS[C@H]12)c1csc(N)n1 [FEP, cefepime]	32
2) C[C@@H](O)[C@H]1C(=O)N2C(C(=O)O)=C(S[C@@H]3CN[C@H](C(=O)N(C)C)C3)[C@H](C)[C@H]12	32
3) C[C@@H](O)[C@H]1C(=O)N2C(C(=O)O)=C(SCCN=CN)C[C@H]12	8
4) CC(C)(O/N=C(\C(=O)N[C@@H]1C(=O)N2C(C(=O)[O-])=C(C[n+]3ccccc3)CS[C@H]12)c1csc(N)n1)C(=O)O	64
5) NC(=O)[C@@H]1CC[C@@H]2CN1C(=O)N2OS(=O)(=O)O	16
6) Cn1c(N)c(NC(=O)NCCN)c[n+]1CC1=C(C(=O)O)N2C(=O)[C@@H](NC(=O)/C(=N\OC(C)(C)C(=O)[O-])c3nsc(N)n3)[C@H]2SC1	64
7) O=C(O)c1c(F)ccc2c1OB(O)[C@@H]1C[C@H]21	16

----------
Listed here: items and their measured Ki.
# System name: UniProt:Q9EXV5
# Sequence (Q9EXV5 entry or part of it): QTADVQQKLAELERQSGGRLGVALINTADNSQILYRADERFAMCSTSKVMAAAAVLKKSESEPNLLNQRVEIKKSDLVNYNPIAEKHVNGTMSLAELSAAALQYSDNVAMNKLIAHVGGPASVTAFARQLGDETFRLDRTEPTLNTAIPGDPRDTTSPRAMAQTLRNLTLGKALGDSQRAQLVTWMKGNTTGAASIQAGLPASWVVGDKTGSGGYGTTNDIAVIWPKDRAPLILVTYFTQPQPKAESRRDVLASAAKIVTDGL
# Measurement description: Ki app of β-lactamase inhibition, purified enzyme
# Experimental context: 10-minute preincubation; nitrocefin substrate
Readout kind: Ki

1. O=C(O)c1c(F)ccc2c1OB(O)[C@@H]1C[C@H]21	0.37 nM
2. O=C(NC1CCNCC1)[C@@H]1CC[C@@H]2CN1C(=O)N2OS(=O)(=O)O	24 nM
3. CC1=C[C@@H]2CN(C(=O)N2OS(=O)(=O)O)[C@@H]1C(N)=O	0.21 nM
4. NC(=O)[C@@H]1CC[C@@H]2CN1C(=O)N2OS(=O)(=O)O	0.18 nM
5. NCCN[C@H]1CC[C@H](CC(=O)N[C@H]2Cc3cccc(C(=O)O)c3OB2O)CC1	2.6 nM

----------
# System name: SHV-12 (Klebsiella pneumoniae, UniProt P0AD64, E235K/G234S/L31Q)
# Sequence (P0AD64 22-286 L31Q/G234S/E235K): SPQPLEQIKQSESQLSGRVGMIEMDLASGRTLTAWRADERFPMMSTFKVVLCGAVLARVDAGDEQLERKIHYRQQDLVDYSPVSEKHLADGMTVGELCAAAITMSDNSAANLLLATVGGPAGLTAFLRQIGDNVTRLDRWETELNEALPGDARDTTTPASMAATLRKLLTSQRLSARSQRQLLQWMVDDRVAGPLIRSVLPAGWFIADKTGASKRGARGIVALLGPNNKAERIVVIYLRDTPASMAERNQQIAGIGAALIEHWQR
# Measurement description: Ki app of β-lactamase inhibition, purified enzyme
# Assay type: biochemical
# Experimental: The majority of purified β-lactamase enzymes used in the study were either expressed and purified internally ([35]) or obtained from Emerald Biostructures (Bainbridge Island, WA, USA). L1 enzyme was purified as described in reference ([36]). Enzymes were mixed with BLIs at concentrations varying from 160 to 0.0027 µM in 50-mM Na-phosphate pH7.0, 0.1-mg/mL bovide serum albumin (BSA) (buffer A; 20-µM ZnCl2 was also added for all metalloenzymes) and incubated for 10 minutes at 37°C. […]
Readout kind: Ki

1) O=C(NC1CCNCC1)[C@@H]1CC[C@@H]2CN1C(=O)N2OS(=O)(=O)O	0.036 µM
2) NC(=O)[C@@H]1CC[C@@H]2CN1C(=O)N2OS(=O)(=O)O	0.00024 µM

----------
# System name: IMP-1 (Serratia marcescens, UniProt P52699)
# Sequence (P52699 19-246 limits assumed): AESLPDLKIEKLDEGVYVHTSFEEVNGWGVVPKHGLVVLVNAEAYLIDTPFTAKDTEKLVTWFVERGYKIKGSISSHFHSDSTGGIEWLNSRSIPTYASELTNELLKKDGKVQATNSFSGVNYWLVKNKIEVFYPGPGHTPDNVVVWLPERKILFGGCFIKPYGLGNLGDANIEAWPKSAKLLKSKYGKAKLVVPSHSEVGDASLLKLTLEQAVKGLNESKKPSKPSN
# Measurement description: Ki of metallo-β-lactamase inhibition, purified enzyme
# Assay type: biochemical
# Experimental context: 10-minute preincubation; imipenem substrate; read-out: Ki
Readout kind: Ki

1. NCCN[C@H]1CC[C@H](CC(=O)N[C@H]2Cc3cccc(C(=O)O)c3OB2O)CC1	> 20 µM

----------
# System name: OXA-48 (Klebsiella pneumoniae, UniProt Q6XEC0)
# Sequence (Q6XEC0 23-265 limits assumed): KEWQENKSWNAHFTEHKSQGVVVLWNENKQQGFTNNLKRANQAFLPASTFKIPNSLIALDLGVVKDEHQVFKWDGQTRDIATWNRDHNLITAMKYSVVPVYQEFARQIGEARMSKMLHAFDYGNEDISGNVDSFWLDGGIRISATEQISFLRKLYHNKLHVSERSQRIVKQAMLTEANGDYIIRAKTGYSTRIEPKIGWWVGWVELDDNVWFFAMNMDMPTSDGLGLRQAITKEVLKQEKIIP
# Measurement description: Ki app of β-lactamase inhibition, purified enzyme
# Experimental context: 10-minute preincubation; nitrocefin substrate
Readout kind: Ki (nM)

1. NCCN[C@H]1CC[C@H](CC(=O)N[C@H]2Cc3cccc(C(=O)O)c3OB2O)CC1	6.1
2. CC1=C[C@@H]2CN(C(=O)N2OS(=O)(=O)O)[C@@H]1C(N)=O	0.72
3. O=C(O)c1c(F)ccc2c1OB(O)[C@@H]1C[C@H]21	0.22

----------
# System name: SHV-12 (Klebsiella pneumoniae, UniProt P0AD64, E235K/G234S/L31Q)
# Measurement description: Ki app of β-lactamase inhibition, purified enzyme
# Format: biochemical
# Experimental context: 10-minute preincubation; nitrocefin substrate; read-out: Ki app
pKi: −log10 of the molar value.
Readout kind: pKi

1) O=C(O)C[C@@H]1CC[C@H](NC(=O)Cc2cccs2)B(O)O1 [Vaborbactam, vaborbactam]	7.68
2) NCCN[C@H]1CC[C@H](CC(=O)N[C@H]2Cc3cccc(C(=O)O)c3OB2O)CC1 [Taniborbactam, taniborbactam]	9.82

----------
pKi: −log10 of the molar value.
// endpoint pKi / system NDM-1 (Klebsiella pneumoniae)
Readout kind: pKi

1) NC(=O)[C@@H]1CC[C@@H]2CN1C(=O)N2OS(=O)(=O)O	< 3.80
2) CC1=C[C@@H]2CN(C(=O)N2OS(=O)(=O)O)[C@@H]1C(N)=O	< 3.80
3) O=C(NC1CCNCC1)[C@@H]1CC[C@@H]2CN1C(=O)N2OS(=O)(=O)O	< 3.80

----------
# System name: VIM-1 (Pseudomonas aeruginosa)
# Measurement description: Ki of metallo-β-lactamase inhibition, purified enzyme
# Format: biochemical
# Experimental context: 10-minute preincubation; nitrocefin substrate
pKi: −log10 of the molar value.
Readout kind: pKi

1. O=C(O)c1c(F)ccc2c1OB(O)[C@@H]1C[C@H]21 [Xeruborbactam, xeruborbactam]	7.49
2. NCCN[C@H]1CC[C@H](CC(=O)N[C@H]2Cc3cccc(C(=O)O)c3OB2O)CC1 [Taniborbactam, taniborbactam]	7.51

----------
# System name: VIM-1 (Pseudomonas aeruginosa)
# Measurement description: Ki of metallo-β-lactamase inhibition, purified enzyme
# Format: biochemical
# Experimental context: 10-minute preincubation; nitrocefin substrate; listed as taniborbactam
Readout kind: Ki

1. NCCN[C@H]1CC[C@H](CC(=O)N[C@H]2Cc3cccc(C(=O)O)c3OB2O)CC1 [Taniborbactam, taniborbactam]	~30 nM

----------
# Tested on: E. coli CDC 0069 (EC1106), NDM-1
# Measurement description: MIC, reference strain
# Format: cell-based
# Experimental context: Escherichia coli, BLI at the fixed concentration in brackets, read-out: MIC
Readout kind: MIC

1) O=C(NC1CCNCC1)[C@@H]1CC[C@@H]2CN1C(=O)N2OS(=O)(=O)O	> 64 µg/mL
2) CO/N=C(\C(=O)N[C@@H]1C(=O)N2C(C(=O)[O-])=C(C[N+]3(C)CCCC3)CS[C@H]12)c1csc(N)n1 [FEP, cefepime]	64 µg/mL
3) Cn1c(N)c(NC(=O)NCCN)c[n+]1CC1=C(C(=O)O)N2C(=O)[C@@H](NC(=O)/C(=N\OC(C)(C)C(=O)[O-])c3nsc(N)n3)[C@H]2SC1	> 64 µg/mL
4) C[C@@H](O)[C@H]1C(=O)N2C(C(=O)O)=C(S[C@@H]3CN[C@H](C(=O)N(C)C)C3)[C@H](C)[C@H]12	32 µg/mL
5) CC(C)(O/N=C(\C(=O)N[C@@H]1C(=O)N2C(C(=O)[O-])=C(C[n+]3ccccc3)CS[C@H]12)c1csc(N)n1)C(=O)O	> 64 µg/mL

----------
# System name: VIM-1 in whole cells of KP1015 (OmpK36 GD repeat) (Pseudomonas aeruginosa, UniProt A0A0F7KYQ8)
# Construct: endogenous in cells; host or cells: K. pneumoniae KP1015
# Measurement description: cell-based
# Design: species or system K. pneumoniae
# Experimental context: read-out: IC50 of β-lactamase inhibition in whole cells
Readout kind: IC50 (µM)

1. NCCN[C@H]1CC[C@H](CC(=O)N[C@H]2Cc3cccc(C(=O)O)c3OB2O)CC1 [Taniborbactam, taniborbactam]	39.1

----------
# System name: OXA-23 (Acinetobacter baumannii)
# Sequence (Q9L4P2 18-273): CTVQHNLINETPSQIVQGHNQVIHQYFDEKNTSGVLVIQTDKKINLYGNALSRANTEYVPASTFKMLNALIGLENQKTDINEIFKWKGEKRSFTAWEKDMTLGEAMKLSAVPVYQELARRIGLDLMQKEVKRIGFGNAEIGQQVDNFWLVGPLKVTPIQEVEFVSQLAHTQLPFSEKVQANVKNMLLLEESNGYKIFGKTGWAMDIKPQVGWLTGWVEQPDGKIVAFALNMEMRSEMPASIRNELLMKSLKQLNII
# Measurement description: Ki app of β-lactamase inhibition, purified enzyme
# Type: biochemical
# Experimental context: 10-minute preincubation; nitrocefin substrate
Below, each entry is listed alongside its reported Ki.
Readout kind: Ki (nM)

1. CC1=C[C@@H]2CN(C(=O)N2OS(=O)(=O)O)[C@@H]1C(N)=O	94
2. O=C(O)c1c(F)ccc2c1OB(O)[C@@H]1C[C@H]21	0.74

----------
# System name: VIM-1 in whole cells of KP1015 (OmpK36 GD repeat) (Pseudomonas aeruginosa)
# Construct: endogenous in cells; host or cells: K. pneumoniae KP1015
# Measurement description: cell-based
# Design: species or system K. pneumoniae
pIC50: −log10 of the molar value.
Readout kind: pIC50

1. O=C(O)c1c(F)ccc2c1OB(O)[C@@H]1C[C@H]21 [Xeruborbactam, xeruborbactam]	4.15
